Data credit: the supplement of paper PMC4466140

target desc: AgNbp2
assay protocol: SPOT peptide array binding signal intensity (averaged, normalized) (arbitrary units (background-subtracted, floor 0; scale differs between SH3 domains)); higher = stronger binding of the SH3 domain to the peptide
Recorded SPOT peptide array binding signal intensity values for a group of binders are listed next.
property: SPOT peptide array binding signal intensity

{"binder": "IPSRPAPKPPSSASA", "test value": 8100}
{"binder": "AAHKTKPSIPPKKVE", "test value": "≤ 0"}
{"binder": "LYEAMPPTLPHRDWK", "test value": 154}
{"binder": "AERNYAPRLPRRETS", "test value": 128}
{"binder": "RRASLFPRDPKRLRP", "test value": 107}
{"binder": "LLGRKRPVMERVVDI", "test value": 144}
{"binder": "YVRRRPRVRLEPLLS", "test value": 424}
